test system: MDA-MB-468 breast; assay: NCI tumour cell line growth inhibition, 48 h; in the data active = GI50 below about 0.43 µM; inactive = the rest
Write down the outcome that applies. Available outcomes: yes (1) (active), no (0) (inactive)

Consider the following illustrative entries.
COc1cc[nH]c1/C=C1\C(=O)Nc2ccc([N+](=O)[O-])c(N3CC[C@@H](O)C3)c21    yes (1)
COc1ccc(/C=C/C(=O)/C=C(/C=C/c2ccc(OC)c(OC)c2OC)OB(F)F)c(OC)c1OC    no (0)
CC(=C(c1ccc(OCCCN(C)C)cc1)c1ccc(OCCCN(C)C)cc1)c1ccccc1    yes (1)
COc1ccc(C(=O)/C=C/c2cccc(Cl)c2Cl)cc1S(N)(=O)=O    no (0)

In the following, a different compound is considered.
### Prompt Kindly provide the recorded test outcome for the following compound: `CC(=O)Nc1nc(C)c(-c2cc3c(c(S(C)(=O)=O)c2)C(=O)N([C@@H](C)C2CC2)C3)s1`
### Response no (0)

---

Listed compounds paired with reported TGI
test system: MDA-MB-468 breast; test: NCI tumour cell line growth inhibition, 48 h
Answer format: numeric, µM implied, no suffix.

Below, each entry is followed by its recorded TGI result.
CCCCCCCCCCCCCCCC(N)c1ccccc1 (stereo not given)    3.14
CNCC1CCn2c(c(C3=C(c4cn(C)c5ccccc45)C(=O)NC3=O)c3ccccc32)C1 (stereo not given)    6.58

The reported TGI of the compound `COC(=O)CCc1c(/C=C2\N=C(c3ccc[nH]3)C=C2OC)[nH]c(C)c1C(=O)OCc1ccccc1` was 4.4

The reported TGI of the compound `COc1cc[nH]c1/C=C1\C(=O)Nc2ccc([N+](=O)[O-])c(N3CC[C@@H](O)C3)c21` was 0.995

The reported TGI of the compound COc1ccccc1/C=C/C=N/NC1=NC2C(S1)N(C)C(=O)N2c1ccccc1 (stereo not given) was 31

The reported TGI of the compound `O=S1(=O)C=C(c2ccccc2)C(c2ccccc2)=C1` was 2.46

The reported TGI of the compound `COc1ccc(-c2c(C#N)cnc(N)c2-c2nc3cc(C)c(C)cc3[nH]2)cc1` was 23.1

The reported TGI of the compound `NC(N)=NC(N)=NCc1ccco1` was 500

The reported TGI of the compound `CN(C)CCNC(=O)c1ccc(-c2nc3ccc4[nH]ncc4c3c3c2COCC3)cc1` was 0.36

The reported TGI of the compound `COc1cc(OC)c2c(c1Cl)O[C@]1(C2=O)C(OCc2ccccc2)=CC(=O)C[C@H]1C` was 47.5

The reported TGI of the compound `COc1ccc(C(=O)/C=C/c2cccc(Cl)c2Cl)cc1S(N)(=O)=O` was 13.1

The reported TGI of the compound `CC(=O)N1c2ccc(-c3ccc(C(=O)O)cc3)cc2[C@H](Nc2ccc(Cl)cc2)C[C@@H]1C` was 17.3

The reported TGI of the compound `CCC(=O)OCN1C(=O)C=CC1=O` was 32.4

---

test system: MDA-MB-468 breast; assay: NCI tumour cell line growth inhibition, 48 h; in the data active = GI50 below about 0.43 µM; inactive = the rest
Write down the outcome that applies. Available outcomes: label 1 = active, label 0 = inactive

Consider the following illustrative entries.
CNCC1CCn2c(c(C3=C(c4cn(C)c5ccccc45)C(=O)NC3=O)c3ccccc32)C1 (stereo not given)    label 0
COC(=O)CCc1c(/C=C2\N=C(c3ccc[nH]3)C=C2OC)[nH]c(C)c1C(=O)OCc1ccccc1    label 0
CN(C)CCNC(=O)c1ccc(-c2nc3ccc4[nH]ncc4c3c3c2COCC3)cc1    label 1
O=C(Nc1nc2ccc([N+](=O)[O-])cc2s1)Nc1ccccc1F    label 0

### Prompt Kindly provide the recorded test outcome for the following molecule: `CC1(C)N=C(N)N=C(N)N1c1ccc(CCC(=O)Nc2cccc(S(=O)(=O)F)c2)cc1`
### Response label 0
